The origin of these recorded values is patent US20170306031A1.

- subjectOfTest: T1, human GFRAL (analyte in Biacore assays) (human, UniProt Q6UXV0 19-351, limits assumed)
- T1 construct: injected in solution over captured antibody; also called hGFRAL
- T1 sequence: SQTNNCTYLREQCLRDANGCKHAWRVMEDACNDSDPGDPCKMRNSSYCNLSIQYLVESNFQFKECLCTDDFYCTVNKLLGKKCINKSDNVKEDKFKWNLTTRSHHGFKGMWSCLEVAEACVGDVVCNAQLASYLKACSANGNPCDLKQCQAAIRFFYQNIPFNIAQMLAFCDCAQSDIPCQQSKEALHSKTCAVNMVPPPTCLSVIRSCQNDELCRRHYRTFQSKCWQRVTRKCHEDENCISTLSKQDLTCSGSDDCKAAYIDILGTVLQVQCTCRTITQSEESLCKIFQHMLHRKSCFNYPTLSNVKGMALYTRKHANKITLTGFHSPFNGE
- testDescription: Biacore SPR, antibody captured, GFRAL injected
metricName: Kd (nM)
Numbers only; they are read as nM.

antibody designated P8G4 (antibody, V domains shown, mouse hybridoma monoclonal) VH: QVQLKQSGPGLVQPSQSLSITCTVSGFSLTSYGVHWVRQSPGKGLDWLGVLWSGGSTDYNAAFISRLSISKDNSKSQVFFKMNSLQADDTAIYYCARNFGDYWGQGTSVTVSS VL: QIVLTQSPAIMSASPGEKVTMTCSASSRVSYMHWYQQKSGTSPKRWIYDTSKLASGVPARFSGSGSGTSYSLTISSMEAEDAATYYCQQWNNNPPTFGAGTTLELK :: 0.21

antibody designated 2B11 (antibody, V domains shown, mouse hybridoma monoclonal) VH: DVQLQESGPGLVKPSQSLSLTCSVTGYSITSGYYWNWIRQFPGNKLEWMGHIANDGSNYYNPFLKHRVSITRDTSKNQFFLKLNSVTIQDTATYYCARGGSYFDYVDYWGQGTTLTVSS VL: DIQMTQTTSSLSASLGDRVTINCRASQDISNYLNWYQQKPDGTVKLLIYYTSRLHSGVPSRFSGSGSGTDYSLTITNLEQEDIATYFCQQGNTLPFTFGSGTKLEIK has a reported Kd of 0.1

antibody designated P1B6 (antibody, V domains shown, mouse hybridoma monoclonal) VH: EVQLQQSGPELVKPGASVKMSCKASGYTFTDYYMNWVKQTHGKSLEWIGDINPNNGGPIYNQKFKGKATLTVDKSSSTAYMELRSLTSEDSAVYYCARSDSAWFTYWGQGTLVTVSA VL: QIVLTQSPAIMSASPGEKVTMTCSASSSVSYMYWYQQKPGSSPRLLIYDTSNLASGVPVRFSGSGSGTFYSITISRMEAEDAATYYCQQWNSYPPTFGGGTKLEIK has a reported Kd of 0.14
